The following binders are shown together with reported pKd values.
- measurement-target: T1, NativeRPtag(large)_with_Tags_and_Cys (Thermoanaerobacter tengcongensis)
- T1 construct: Unlabeled in anisotropy assays; coupled through the engineered N-terminal Cys to SulfoLink agarose or maleimide plates in column, pull-down and ELISA assays
- T1 chain: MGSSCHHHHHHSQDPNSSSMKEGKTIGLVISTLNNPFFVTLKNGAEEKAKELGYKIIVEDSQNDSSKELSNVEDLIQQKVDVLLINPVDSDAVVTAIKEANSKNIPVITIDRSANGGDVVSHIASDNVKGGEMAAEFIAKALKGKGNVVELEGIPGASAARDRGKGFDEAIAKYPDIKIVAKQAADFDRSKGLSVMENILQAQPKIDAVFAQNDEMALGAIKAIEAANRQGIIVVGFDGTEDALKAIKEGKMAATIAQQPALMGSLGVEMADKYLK
- test-method-notes: fluorescence anisotropy; DMSO (20%)
pKd: −log10 of the molar value. No end group written: not given here. *: point of attachment. RhodamineB = CCN(CC)c1ccc2c(-c3ccccc3C(=O)*)c3ccc(=[N+](CC)CC)cc-3oc2c1
endpoint: pKd

[[record]]
binder = "RhodamineB-KIANFIPAELKLITKANVQ (also: also used unlabeled as competitor, Rhodamine labeled in the Kd assays; also called RPtag(small) (tight)) [RPtag(small) Nd2, p5a, e18a]"
recorded_result = 10.64

[[record]]
binder = "RhodamineB-GEKIPNFIPAELKLITKENVQ (Synthetic peptide) [native RPtag(small)]"
recorded_result = 9.77

